The origin of these recorded values is patent US20220380463A1.

Target: T1, Cynomolgus CD3εδ Fc heterodimer (Cy CD3ε Fc / CD3δ Fc-HIS) (cynomolgus, UniProt Q95LI8 22-100)
T1 chain 1: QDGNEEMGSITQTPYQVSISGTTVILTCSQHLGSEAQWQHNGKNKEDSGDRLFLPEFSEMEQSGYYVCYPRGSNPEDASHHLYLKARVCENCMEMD
T1 chain 2: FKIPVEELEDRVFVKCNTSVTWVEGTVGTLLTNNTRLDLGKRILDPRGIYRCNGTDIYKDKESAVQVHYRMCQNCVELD
Experiment: BLI (Octet), IgG on AHC sensor, pH 6.0

{"binder": "SAD10319_P02_D06 (ADI-48631) (antibody, V domains shown, IgG; also called Ab11) VH: QVQLVQSGAEVKKPGASVKVSCKASGYTFTDYAMHWVRQAPGQRLEWMGWINAGTGATIYSQKFQGRVTITRDTSASTAYMELSSLRSEDTAVYYCARDAYHHYFYDVWGQGTLVTVSS VL: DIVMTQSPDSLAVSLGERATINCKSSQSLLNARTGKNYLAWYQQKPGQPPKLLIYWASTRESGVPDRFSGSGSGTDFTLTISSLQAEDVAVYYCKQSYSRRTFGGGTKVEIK", "measurement_units": "s⁻¹", "koff": 0.0212}
{"binder": "SAD10319_P04_C11 (ADI-57336) (antibody, V domains shown, IgG; also called Ab34) VH: QVQLVQSGAEVKKPGASVKVSCKASGYTFHSYEMHWVRQAPGQRLEWMGWINPSTGSTKYSQKFQGRVTITRDTSASTAYMELSSLRSEDTAVYYCARDAYGRYFYDHWGQGTLVTVSS VL: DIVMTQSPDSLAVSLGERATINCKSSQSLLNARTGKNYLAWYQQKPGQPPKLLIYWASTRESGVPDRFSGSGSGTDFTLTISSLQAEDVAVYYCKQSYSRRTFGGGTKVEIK", "measurement_units": "s⁻¹", "koff": 0.00317}
{"binder": "SAD10319_P05_G02 (ADI-57414) (antibody, V domains shown, IgG; also called Ab142) VH: QVQLVQSGAEVKKPGASVKVSCKASGYTFTTYAMHWVRQAPGQRLEWMGWIDPVTGNTKYSQKFQGRVTITRDTSASTAYMELSSLRSEDTAVYYCARDHYGRYFYDHWGQGTLVTVSS VL: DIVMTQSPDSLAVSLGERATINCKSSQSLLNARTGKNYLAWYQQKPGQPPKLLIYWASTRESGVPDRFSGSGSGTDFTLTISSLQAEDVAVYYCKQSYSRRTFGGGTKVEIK", "measurement_units": "s⁻¹", "koff": 0.0156}
{"binder": "SAD10320_P04_F12 (ADI-57394) (antibody, V domains shown, IgG; also called Ab120) VH: QVQLVQSGAEVKKPGASVKVSCKASGFNIKDYYMHWVRQAPGQRLERMGWIDLENANTIYDAKFQGRVTITRDTSASTAYMELSSLRSEDTAVYYCARDAYGHEFYDVWGQGTLVTVSS VL: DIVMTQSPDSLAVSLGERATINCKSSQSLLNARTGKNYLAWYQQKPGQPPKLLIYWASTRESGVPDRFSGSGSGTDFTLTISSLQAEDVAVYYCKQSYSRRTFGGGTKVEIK", "measurement_units": "s⁻¹", "koff": 0.00259}
{"binder": "SAD10319_P05_F01 (ADI-57412) (antibody, V domains shown, IgG; also called Ab140) VH: QVQLVQSGAEVKKPGASVKVSCKASGYTFTDDAMHWVRQAPGQSLEWMGWIDAGTGNTYYSQKFQGRVTITRDTSASTAYMELSSLRSEDTAVYYCAHDAYGHYFYDVWGQGTLVTVSS VL: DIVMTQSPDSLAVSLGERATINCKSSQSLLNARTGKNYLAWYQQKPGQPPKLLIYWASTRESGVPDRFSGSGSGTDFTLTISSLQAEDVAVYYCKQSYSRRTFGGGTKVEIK", "measurement_units": "s⁻¹", "koff": 0.0214}
